Values from ChEMBL document CHEMBL4396879

Form field: remaining at 6 h, 100 µM (one value per entry).
Assay: Stability of the compound in human plasma used as 1:2 ratio of plasma to pH 7.4 PBS assessed as intact compound at 100 uM incubated for 6 hr […]
Assay type: ADME, cell-free
Details: plasma diluted with PBS (1:2), read-out: Stability
EXPERIMENTAL READOUT: remaining at 6 h, 100 µM

[[record]]
chem_smiles = "CC(=O)N[C@@H](CCCNC(=N)N)C(=O)N[C@@H](CCCCN)C(=O)NCC(=O)NCCCCC1CCN(CC(=O)N2c3ccccc3NC(=O)c3ccccc32)CC1"
experimental_readout = "remaining at 6 h, 100 µM"
measured_value = "> 99%"

[[record]]
chem_smiles = "CC(=O)N[C@@H](CCCCN)C(=O)N[C@@H](CCCNC(=N)N)C(=O)NCCCCC1CCN(CC(=O)N2c3ccccc3NC(=O)c3ccccc32)CC1"
experimental_readout = "remaining at 6 h, 100 µM"
measured_value = "> 99%"

[[record]]
chem_smiles = "CC(=O)N[C@@H](CCCCN)C(=O)N[C@@H](C)C(=O)N[C@@H](CCCNC(=N)N)C(=O)NCCN1CCN(CCCCC2CCN(CC(=O)N3c4ccccc4NC(=O)c4ccccc43)CC2)CC1"
experimental_readout = "remaining at 6 h, 100 µM"
measured_value = "> 99%"

